- System: influenza A virus minigenome (PB2, PB1, PA, NP; luciferase reporter) in 293T cells, RNP_Alaska
- assay explanation: microbe, parasite or virus in culture
- Type: cell-based
- condition details: HEK-293T, 48 h
reported endpoint: EC50

The cases that follow already have their EC50 on record.
{"molecule": "Cc1ccccc1[C@H](c1cccc(C)c1F)[C@H]1[C@H]2CCCN2C(=O)c2c(O)c(=O)cnn21 [Example 17]", "endpoint value": "100 to 1000 nM"}
{"molecule": "CC(C)(C)OC(=O)OCOc1c2n(ncc1=O)[C@@H]([C@H](c1ccc(F)cc1)c1cccc(F)c1F)[C@H]1CCCN1C2=O [Example 91]", "endpoint value": "< 100 nM"}
{"molecule": "O=C(Oc1c2n(ncc1=O)[C@@H]([C@H](c1ccccc1)c1cccc(F)c1F)[C@H]1CCCN1C2=O)c1ccccc1 [Example 69]", "endpoint value": "< 100 nM"}
{"molecule": "COC(=O)OC(C)Oc1c2n(ncc1=O)[C@@H]([C@H](c1ccccc1)c1cccc(F)c1F)[C@H]1CCCN1C2=O (some centres unmarked) [Example 33]", "endpoint value": "100 to 1000 nM"}
{"molecule": "O=C(Oc1c2n(ncc1=O)[C@@H]([C@H](c1ccccc1)c1cccc(F)c1F)[C@H]1CCCN1C2=O)N1CCCCC1 [Example 48]", "endpoint value": "< 100 nM"}

Provide each entry's EC50 from the list below.
1. CN1CCN(C(=O)Oc2c3n(ncc2=O)[C@@H]([C@H](c2cccc(F)c2)c2cccc(F)c2F)[C@H]2CCCN2C3=O)CC1 [Example 100]
2. O=C(Oc1c2n(ncc1=O)[C@@H]([C@H](c1ccccc1)c1cccc(F)c1F)[C@H]1CCCN1C2=O)OC1CCOCC1 [Example 74]
3. CC(C)(C)C(=O)Oc1c2n(ncc1=O)[C@@H]([C@H](c1cccc(F)c1)c1cccc(F)c1F)[C@H]1CCCN1C2=O [Example 111]
4. O=C1c2c(O)c(=O)cnn2[C@@H](C(c2cccc(F)c2)c2cccc(F)c2)[C@H]2CC(F)(F)CN12 [Example 13]
5. CC(C)CC(=O)Oc1c2n(ncc1=O)[C@@H]([C@H](c1ccccc1)c1cccc(F)c1F)[C@H]1CCCN1C2=O [Example 60]

["≥ 1000 nM", "< 100 nM", "< 100 nM", "≥ 1000 nM", "< 100 nM"]

Provide each entry's EC50 from the list below.
1. CN(C)C(=O)Oc1c2n(ncc1=O)[C@@H]([C@H](c1ccccc1)c1cccc(F)c1F)[C@H]1CCCN1C2=O [Example 35]
2. COc1c2n(ncc1=O)[C@@H]([C@H](c1ccc(F)cc1)c1cccc(F)c1F)[C@H]1CCCN1C2=O [Example 81]

1. ≥ 1000 nM
2. ≥ 1000 nM

Provide each entry's EC50 from the list below.
1. CC(C)C(=O)Oc1c2n(ncc1=O)[C@@H]([C@H](c1ccccc1)c1cccc(F)c1F)[C@H]1CCCN1C2=O [Example 31]
2. O=C(CC1CCOCC1)Oc1c2n(ncc1=O)[C@@H]([C@H](c1ccccc1)c1cccc(F)c1F)[C@H]1CCCN1C2=O [Example 73]

1. < 100 nM
2. < 100 nM

Value source: patent US12071441B2
